test system: Tov-21-G; experiment: Primary qHTS to identify gynecologic anti-cancer compounds using libraries of approved drugs and bioactive compounds (AID 1345084); conditions: Gynecologic cancer cell panel viability, ATPlite luminescence, 48 h; series mostly up to 57.5 µM; note: nearly all actives have a fitted effect of over 55% in size
Records with an inconclusive call do not appear. The source made the active and inactive calls. Calls come from the whole dose curve; as a rule, active = well fitted cell-killing curve with a large enough effect; inconclusive = small, poorly fitted or top-dose-only effect, or effect the other way; inactive = flat fitted curve, though single readings scatter.
Choose the fitting class; nothing outside active, inactive is accepted.

CC1CCC(n2c3cnccc3c3cnc(Nc4ccc5c(n4)CCN(C(=O)CO)C5)nc32)CC1 (stereo not drawn) = inactive
Cn1nccc1Nc1nccc(-c2ccn([C@H](CO)c3ccc(Cl)c(F)c3)c(=O)c2)n1 = inactive
COc1ccc(NS(=O)(=O)c2sc3ccc(Cl)cc3c2C)cc1N1CCNCC1 = inactive
COCCOCCOc1ccc(C2=N[C@@](C)(C(=O)O)CS2)c(O)c1 = inactive
CC1(C)SC2C(NC(=O)[C@H](NC(=O)N3CCNC3=O)c3ccccc3)C(=O)N2C1C(=O)O (stereo partly drawn) = inactive

Status in this test for CCC(C)n1cc(C)c2c(C(=O)NCc3c(C)cc(C)[nH]c3=O)cc(-c3ccc(N4CCNCC4)nc3)cc21 (stereo not drawn) ?
inactive

And `CCC[C@@H](NC(=O)N1C(=O)C(CC)(CC)[C@@H]1Oc1ccc(C(=O)N2CCN(C)CC2)cc1)c1ccc2c(c1)OCO2` ?
inactive

And OCC(Cc1ccccc1)Nc1nc(Oc2ccc3c(c2)CCC3)nc2c1ncn2Cc1ccc(-c2ccccc2)cc1 (stereo not drawn) ?
inactive

And COc1c(N2CC3CCCNC3C2)c(F)cc2c(=O)c(C(=O)O)cn(C3CC3)c12 (stereo not drawn) ?
inactive

And `C/C=C(/COC(=O)/C(C)=C/C)C(=O)OC/C=C/c1ccc(OC)cc1` ?
inactive

And C=C1C(=O)O[C@@H]2/C=C(/C)CC3C=C(C[C@H](OC(=O)/C(C)=C\C)[C@@H]12)C(=O)O3 (stereo partly drawn) ?
inactive

And COc1cc(O)ccc1OCCNCC(O)COc1cccc2[nH]c3ccccc3c12 (stereo not drawn) ?
inactive

And C=C1[C@@H](C2=CC(=O)OC2)CC[C@@]2(O)[C@@H]1CC1[C@H]2CC[C@@H]2C[C@@H](O[C@H]3O[C@@H](C)[C@@H](O[C@@H]4O[C@H](CO[C@@H]5O[C@H](CO)[C@@H](O)[C@H](O)[C@H]5O)[C@@H](O)[C@H](O)[C@H]4O)[C@H](OC)[C@H]3O)CC[C@]12C (stereo partly drawn) ?
active

And `CN(C)CCCNc1nc(CN2CCN(C(c3ccc(Cl)cc3)c3ccc(Cl)cc3)CC2)nc2ccccc12` ?
inactive

And `CCN1CCC[C@@H]1CNC(=O)c1ccc2c(c1)NC(=O)/C(=C/c1ccccc1F)S2` ?
inactive

And `C=C(C)C(=O)O[C@H]1[C@H]2C(=C)C(=O)O[C@@H]2C[C@@H](C)/C=C\C(=O)[C@](C)(O)[C@@H]1OC(C)=O` ?
active

And `Cc1cc2nc(NCCCO)n(CC(=O)c3cc(C(C)(C)C)c(O)c(C(C)(C)C)c3)c2cc1C` ?
inactive

And `Cc1ccc(C(=O)N2CCN(c3ccc([N+](=O)[O-])cc3)CC2)cc1Cl` ?
inactive

And `CC1CCN(c2cc(NC(=O)c3ccccc3)ncn2)CC1` ?
inactive

And `CN(C)C(=O)c1cc2cnc(Nc3ccc(N4CCNCC4)cn3)nc2n1C1CCCC1` ?
inactive

And `CNc1ccc([N+](=O)[O-])cc1-n1cnc(-c2ccc(C(F)(F)F)cc2)c1` ?
inactive

And CC1CCC2C(=CCC(O)C2(C)C)C1(C)Cc1c(O)cc(CO)c(C=O)c1O (stereo not drawn) ?
inactive

And `COc1ccc(C(=O)N(CCC(C)C)Cc2nc(C)c(C)n2Cc2ccccc2C)c(OC)c1` ?
inactive

---

assay: qHTS for Inhibitors of Plasmodium falciparum (7G8) proliferation (AID 504316); note: nearly all actives have a fitted effect of over 65% in size; conditions: P. falciparum 7G8 in erythrocytes, SYBR Green DNA, 72 h; series mostly up to 6.7 µM
Records with an inconclusive call do not appear. Calls of active or inactive are those of the source. Calls follow the shape of the dose curve; as a rule, active = well fitted inhibition curve with a large enough effect; inconclusive = small, poorly fitted or top-dose-only effect; inactive = flat fitted curve, though single readings scatter.
experimentalEndpoint: outcome

Some molecules with recorded outcome:
COC(=O)C[C@H]1c2ccccc2[C@@H]2C(=C[C@@H](C)[C@H]3C(=O)N(O)C(=O)[C@H]32)N1C(=O)OC = inactive
Cc1cc(C)c(S(=O)(=O)OC[C@H]2C=CC[C@@H](CCC[C@H]3O[C@H](C(=O)OC(C)C)CC[C@@H]3C)O2)c(C)c1 = inactive
CCN1C(=O)NC(c2ccccc2)C(C(=O)OC)=C1C (centres undefined) = inactive
CC=COC(=O)N[C@@H](c1ccccc1)[C@]1(C(=O)OC)CCCC1=O = inactive
C[C@@H]1C=CCCO[C@]12C(=O)N(Cc1ccccc1C(F)(F)F)c1ccccc12 = inactive

For the molecule shown here, `CC(=O)[C@@H]1[C@@H](C)N(Cc2ccccc2)C(=O)N[C@H]1c1ccccc1` , give the reported outcome.
inactive

And `CCOC(=O)CNC(=O)O[C@H]1C(=O)c2ccc(OC)cc2O[C@@H]1c1ccc2c(c1)OCO2` ?
inactive

And `O=C(C=Cc1ccc2c(c1)OCO2)c1ccc(F)cc1` ?
inactive

And `COC(=O)c1c(C(=O)OC)c2c3cc(OC)c(OC)cc3ccn2c1C(=O)OC` ?
inactive

---

assay: KB-3-1 Cancer Cell Toxicity qHTS against the NCATS CANVASS Library (AID 1347366); conditions: KB-3-1 viability, CellTiter-Glo luminescence, 72 h; series mostly up to 46.1 µM; note: nearly all actives have a fitted effect of over 75% in size
Results filed as inconclusive are left out. Calls of active or inactive are those of the source. Calls follow the shape of the dose curve; as a rule, active = well fitted cell-killing curve with a large enough effect; inconclusive = small, poorly fitted or top-dose-only effect; inactive = flat fitted curve, though single readings scatter.
Choose the fitting class; nothing outside Y for active, N for inactive is accepted.

The following compounds have reported results that may help.
COc1cc(O)c2c3c(c(O)cc(C)c13)C(=O)OC2 = N
C/C=C/c1cc(OC)c2c(c1)[C@@H](C)[C@H](c1ccc(O)c(OC)c1)O2 = N
C[C@@H](O)[C@H]1OC(=O)C=C2[C@]3(C)[C@H]4[C@H](OC(=O)[C@@]4(C)[C@@H](O)[C@H]4O[C@H]43)[C@H]3O[C@@]231 = Y

# input for lookup
Status in this test for `C[C@@H]1C(=O)[C@]23CC[C@H]1C[C@]21O[C@H]2C(C)(C)C=CC(=O)[C@]23COC1=O` ?
N

---

assay: qHTS for Inhibitors of Plasmodium falciparum (7G8) proliferation (AID 504316); note: nearly all actives have a fitted effect of over 65% in size; conditions: P. falciparum 7G8 in erythrocytes, SYBR Green DNA, 72 h; series mostly up to 6.7 µM
Records with an inconclusive call do not appear. Activity calls are given as the source filed them. Calls come from the whole dose curve; as a rule, active = well fitted inhibition curve with a large enough effect; inconclusive = small, poorly fitted or top-dose-only effect; inactive = flat fitted curve, though single readings scatter.
Choose the fitting class; nothing outside active, inactive is accepted.

The following molecules have reported results that may help.
COC(=O)C1=C(C(=O)OC)[C@@H]2N(Cc3ccccc3)c3ccccc3[C@@]23CCC(=O)N(CCc2ccccn2)C3=N1 = active
CCN1C(=O)NC(c2cccc(C(F)(F)F)c2)C(C(C)=O)=C1C (stereo not drawn) = inactive
Cc1cc2c(nc1C)CCCCN2C[C@H](C)ON=C[C@@H](C)[C@H](OCc1ccccc1)C(C)C = inactive

Status in this test for C=C1CN2C(=NC(c3ccccc3)C(C(=O)OC)=C2C)O1 (stereo not drawn) ?
inactive

And COC(=O)CCCC1=CC2=C(c3ccccc3)C(=O)C(C)(OC(=O)C3CCCC3)C(=O)C2=CN1c1ccc(OC)cc1 (stereo not drawn) ?
inactive

And CCCCC1=CC2=C(c3ccco3)C(=O)C(C)(OC(=O)c3ccc(OC)cc3)C(=O)C2=CN1Cc1ccco1 (stereo not drawn) ?
inactive

---

Overview of recorded activity for various compounds
biological target: Nicotinamide N-methyltransferase (Homo sapiens) (UniProt P40261); assay: Confirmatory Screen for Target Class Profiling of Small Molecule Inhibitors of Methyltransferases (AID 1745852); details: MTase-Glo luminescence, SAH detection, recombinant enzyme; measured here: NNMT max response; stronger effect = lower value
Sequence (P40261 whole entry, looked up): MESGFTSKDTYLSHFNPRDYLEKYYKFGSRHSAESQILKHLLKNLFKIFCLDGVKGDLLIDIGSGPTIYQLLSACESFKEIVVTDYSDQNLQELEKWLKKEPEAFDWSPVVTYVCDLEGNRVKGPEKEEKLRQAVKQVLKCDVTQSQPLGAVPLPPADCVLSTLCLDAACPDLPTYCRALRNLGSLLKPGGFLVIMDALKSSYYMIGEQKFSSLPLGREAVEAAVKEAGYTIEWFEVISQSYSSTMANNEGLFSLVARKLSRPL
Report only the number, with the unit % understood.

CN(Cc1ccc(C(=O)O)cc1)c1ccc(OCc2c(-c3c(Cl)cccc3Cl)noc2C2CC2)nc1C(F)(F)F = -0.741
C[C@@H](Oc1cc(-n2cnc3ccc(OC4CCN(C)CC4)cc32)sc1C(N)=O)c1ccccc1Cl = -85.5
CNCCN(C)Cc1cn[nH]c1-c1ccc(OC2CC(OCCC3CCOCC3)C2)cc1 (stereo not given) = -3.1
CN(C)CCNC(=O)c1cccn2c(=O)c3cc4ccccc4cc3nc12 = 3.48

Now look at this one.
For the compound shown here, Nc1nc(NCC2CCC(CNS(=O)(=O)c3cccc4ccccc34)CC2)nc2ccccc12 (stereo not given) , give the reported activity.
-26.1

---

experiment: Confirmatory screen NINDS Rhodamine qHTS for Zika virus inhibitors (AID 1347161); conditions: purified enzyme assay, Rhodamine110 substrate fluorescence, 15 min; series mostly up to 114 µM; note: nearly all actives have a fitted effect of over 60% in size
Records with an inconclusive call do not appear. Activity calls are given as the source filed them. Calls follow the shape of the dose curve; as a rule, active = well fitted inhibition curve with a large enough effect; inconclusive = small, poorly fitted or top-dose-only effect; inactive = no such curve, though single readings can be large or run the other way.
Choose the fitting class; nothing outside active, inactive is accepted.

CCOC(=O)c1cccc(NC(=O)CSc2ncc3c(n2)-c2ccc(Cl)cc2N(Cc2ccccc2)S3(=O)=O)c1 = active
CC(=O)Oc1cc2c(c(C)c1OC(C)=O)CC=C1[C@@]2(C)CC[C@@]2(C)[C@H]3C[C@](C)(C(=O)O)CC[C@]3(C)CC[C@]12C = active
CCOC(=O)c1ccc(N2C(=O)c3n[nH]c(-c4cccs4)c3C2c2ccc(C(C)(C)C)cc2)cc1 (stereo not drawn) = active
CCN(Cc1cccc(S(=O)(=O)O)c1)c1ccc(C(=C2C=CC(=[N+](CC)Cc3cccc(S(=O)(=O)O)c3)C=C2)c2ccc(O)cc2S(=O)(=O)O)cc1 = active
CCCCCCc1cc2cc(-c3nnc(-c4cccc(Cl)c4)o3)c(=O)oc2cc1O = active

Status in this test for `COc1ccc(S(=O)(=O)c2c(Nc3c(C)cccc3C)sc(C(=O)c3ccc4c(c3)OCO4)c2N)cc1` ?
inactive

And `O=C(Nc1ccccc1C(=O)OCc1cc(=O)n2nc(C3CC3)sc2n1)c1cccc(Cl)c1` ?
inactive

Hello, the source for this data is PubChem BioAssay (NCATS), in case you need it.
